Target: T1, 4H2438-AA
T1 chain: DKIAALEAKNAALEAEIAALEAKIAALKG
Assay: two-hybrid library CCmax;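 also: natural log of median RNA to DNA barcode read ratio; higher means stronger binding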
Details: mean of both orientations
Measured Property: interaction score

Task: Quick one: interaction score of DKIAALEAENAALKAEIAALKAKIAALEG [4H2253-AA] ?
Output: -0.259

Task: Also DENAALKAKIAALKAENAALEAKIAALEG [4H1877-AA] ?
Output: -1.24

Task: Also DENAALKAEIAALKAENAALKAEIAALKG [4H1626-AA] ?
Output: -1.65
